# system: Guanidinoacetate N-methyltransferase (Homo sapiens) (UniProt Q14353)
# assay remarks: Confirmatory Screen for Target Class Profiling of Small Molecule Inhibitors of Methyltransferases (AID 1745852)
# experimental context: MTase-Glo luminescence, SAH detection, recombinant enzyme; series mostly up to 57.3 µM
Activity calls are given as the source filed them. Calls come from the whole dose curve.
Entry note: the call must match one of active, inactive

These recorded examples may help you get a feel for the data.
CC(C)[C@@](C)(O)[C@@H]1CN(c2nc(-c3[nH]nc4ncccc34)c(F)cc2Cl)CCN1 = active
COc1cc(C(=O)NC2CCN(C)CC2)ccc1Nc1ncc2c(n1)N(C1CCCC1)CC(F)(F)C(=O)N2C = active

Prompt: What did the test return for `c1cn2cc(-c3ccc4cn[nH]c4c3)nc(Nc3ccc(N4CCOCC4)cc3)c2n1` ?
Completion: active

Prompt: What did the test return for `Cc1cc(Nc2ccc(NC(=O)c3ccc(Nc4ccnc5ccccc45)cc3)cc2)nc(N)n1` ?
Completion: active

Prompt: What did the test return for `COc1cc2c(cc1OC)N1C(=O)C[C@]34C=CCN5CC[C@@H]2[C@@H](CC3)[C@]514` ?
Completion: inactive

Prompt: What did the test return for `C[C@@H](Oc1cc(-n2cnc3ccc(OC4CCN(C)CC4)cc32)sc1C(N)=O)c1ccccc1C(F)(F)F` ?
Completion: active

Prompt: What did the test return for CC(C)c1c2cc(-c3ccnc(NC4CCC(NC5CCOCC5)CC4)n3)ccc2nn1C (centres undefined) ?
Completion: active

Prompt: What did the test return for `COc1cc2nc(N3CCC(N4CCCCC4)CC3)nc(NC3CCCCCC3)c2cc1OC` ?
Completion: active

Prompt: What did the test return for `CCN1CCN(Cc2ccc(Nc3ncc(F)c(-c4cc(F)c5nc(C)n(C(C)C)c5c4)n3)nc2)CC1` ?
Completion: active
